Numbers sourced from patent US6852741B2.

Target: α3β4 nicotinic acetylcholine receptor (Rattus norvegicus, UniProt P04757+P12392)
Sequence (P04757 26-499): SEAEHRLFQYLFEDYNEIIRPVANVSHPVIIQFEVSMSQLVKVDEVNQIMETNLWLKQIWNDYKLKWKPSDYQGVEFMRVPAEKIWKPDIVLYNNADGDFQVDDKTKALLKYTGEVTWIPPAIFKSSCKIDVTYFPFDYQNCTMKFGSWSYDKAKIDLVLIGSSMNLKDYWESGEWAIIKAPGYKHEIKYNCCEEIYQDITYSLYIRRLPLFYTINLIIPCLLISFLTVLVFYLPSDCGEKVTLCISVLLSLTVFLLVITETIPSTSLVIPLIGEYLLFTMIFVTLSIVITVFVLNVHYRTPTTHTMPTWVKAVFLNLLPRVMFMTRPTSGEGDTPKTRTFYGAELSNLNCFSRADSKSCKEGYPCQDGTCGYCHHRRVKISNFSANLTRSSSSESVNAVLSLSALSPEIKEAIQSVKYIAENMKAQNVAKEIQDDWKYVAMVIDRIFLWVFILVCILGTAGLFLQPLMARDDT
Sequence (P12392 21-495): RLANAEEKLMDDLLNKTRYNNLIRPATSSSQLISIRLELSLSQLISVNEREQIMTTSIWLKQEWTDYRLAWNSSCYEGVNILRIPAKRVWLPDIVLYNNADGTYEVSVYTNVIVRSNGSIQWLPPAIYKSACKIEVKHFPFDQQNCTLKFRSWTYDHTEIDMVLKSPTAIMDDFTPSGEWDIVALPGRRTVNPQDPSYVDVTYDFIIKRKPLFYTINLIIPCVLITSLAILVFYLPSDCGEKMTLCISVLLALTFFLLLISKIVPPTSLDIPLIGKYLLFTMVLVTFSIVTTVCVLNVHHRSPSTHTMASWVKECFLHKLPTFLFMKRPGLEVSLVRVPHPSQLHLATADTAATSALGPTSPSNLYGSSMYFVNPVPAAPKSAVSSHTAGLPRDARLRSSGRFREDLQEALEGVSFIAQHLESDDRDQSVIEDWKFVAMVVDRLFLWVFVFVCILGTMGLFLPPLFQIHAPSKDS
Assay: Two-electrode voltage clamp of Xenopus oocytes expressing wild-type α3β4 receptors
pIC50: −log10 of the molar value.
RECORDED_ENDPOINT: pIC50

| COMPOUND | REPORTED_MEASUREMENT |
| --- | --- |
| COc1ccc(/C=C2\CCCN=C2c2cccnc2)c(OC)c1 [DMXB, 3-[2,4-dimethoxybenzylidene]-anabaseine] | 3.92 |

====

Biological target: α3β4(6′F10′T) nicotinic acetylcholine receptor (Rattus norvegicus, UniProt P04757+P12392, A272T/S268F)
Construct: mutant made by QuikChange site-directed mutagenesis
Sequence (P04757 26-499): as the sequence (P04757 26-499) above
Sequence (P12392 21-495 S268F/A272T): as the sequence (P12392 21-495) above, with S248F, A252T counted along it
Assay: Two-electrode voltage clamp of Xenopus oocytes expressing mutant α3β4(6′F10′T) receptors
Conditions: activation of peak currents

| STRUCTURE_SMILES | EC50, µM |
| --- | --- |
| CNCC/C=C/c1cccnc1 | 111 |
